area over the GR curve for assorted compounds
System: HCC1428
Test Name: area over the GR curve, 72 h; higher = more effect
Form entry: value (GR) — number only.

Some compounds with known area over the GR curve results, for comparison:
CCc1cncnc1N1CCN(Cc2nc3ccc(C(F)(F)F)cc3[nH]2)CC1 (max 10 µM) ... -0.0224
CN(C)CC[C@H](CSc1ccccc1)Nc1ccc(S(=O)(=O)NC(=O)c2ccc(N3CCN(Cc4ccccc4-c4ccc(Cl)cc4)CC3)cc2)cc1[N+](=O)[O-] [ABT-737] (max 10 µM) ... 0.111
COc1cc2c(Oc3ccc4[nH]c(C)cc4c3F)ncnc2cc1OCCCN1CCCC1 [Cediranib/AZD2171] (max 10 µM) ... 0.189
CC(=O)c1c(C)c2cnc(Nc3ccc(N4CCNCC4)cn3)nc2n(C2CCCC2)c1=O (max 3.162 µM) ... 0.314
CCNC(=O)c1noc(-c2cc(C(C)C)c(O)cc2O)c1-c1ccc(CN2CCOCC2)cc1 [Luminespib/NVP-AUY922] (max 1 µM) ... 0.637

Checklist item: area over the GR curve tested on HCC1428, entry CC(=O)Nc1cccc(-n2c(=O)n(C3CC3)c(=O)c3c(Nc4ccc(I)cc4F)n(C)c(=O)c(C)c32)c1 (max 1 µM) , value?
0.0695

###

Tested on: HCC1937
Test Name: area over the GR curve, 72 h; higher = more effect;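 also: Dye Drop or Deep Dye Drop imaging of viable cells in 384-well plates (Hoechst nuclei, LIVE/DEAD dye), nine half-log doses, GR normalized to DMSO controls and time-zero plates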
Condition met means recorded area over the GR curve is 0.3 GR or above; Condition not met means it is below 0.3 GR.

Does the reported area over the GR curve for CC(C)n1nc(-c2ccc3oc(N)nc3c2)c2c(N)ncnc21 [INK128/MLN0128] (max 3.162 µM) fall at or above the 0.3 GR mark?
Condition met

Does the reported area over the GR curve for CN1CC[C@H](c2c(O)cc(O)c3c(=O)cc(-c4ccccc4Cl)oc23)[C@H](O)C1 [Flavopiridol] (max 1 µM) fall at or above the 0.3 GR mark?
Condition not met

Does the reported area over the GR curve for COc1cccc2c1C(=O)c1c(O)c3c(c(O)c1C2=O)C[C@@](O)(C(=O)CO)C[C@@H]3O[C@H]1C[C@H](N)[C@H](O)[C@H](C)O1 [Doxorubicin] (max 3.162 µM) fall at or above the 0.3 GR mark?
Condition met

Does the reported area over the GR curve for Nc1ccc(-c2ccc3ncc4ccc(=O)n(-c5cccc(C(F)(F)F)c5)c4c3c2)cn1 [Torin2] (max 1 µM) fall at or above the 0.3 GR mark?
Condition not met

Does the reported area over the GR curve for O=C1NC(=O)[C@@H](c2cn3c4c(cccc24)CCC3)[C@@H]1c1c[nH]c2ccccc12 [Tivantinib/ARQ197] (max 10 µM) fall at or above the 0.3 GR mark?
Condition not met

###

Test system: PDX1328
Test Name: GRmax, 72 h; higher = less effect;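 also: breast cell lines in 384-well plates, nine doses across a 10^4 range, Dye Drop imaging of viable cells vs DMSO and time-zero plates, GR 0 means no net growth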
Parameter: GRmax, 72 h (GR)
Form entry: value (GR) — number only.

Some compounds with known GRmax, 72 h results, for comparison:
CC[C@@]1(O)C(=O)OCc2c1cc1n(c2=O)Cc2cc3c(CN(C)C)c(O)ccc3nc2-1 [Topotecan] (max 10 µM) ... -0.913
COc1cc2nccc(Oc3ccc(NC(=O)C4(C(=O)Nc5ccc(F)cc5)CC4)cc3)c2cc1OC [Cabozantinib] (max 10 µM) ... 0.251
Cc1nc(NC(=O)N2CCC[C@H]2C(N)=O)sc1-c1ccnc(C(C)(C)C(F)(F)F)c1 [Alpelisib/BYL719] (max 10 µM) ... 0.203
CCC(=O)Nc1ccc(C(=O)Nc2ccc(Nc3ncc4c(n3)N(C)c3ccc(C)cc3C(=O)N4C)cc2)cc1 [FMF-03-145-1] ... 0.128
CC(C)NC[C@@H](C(=O)N1CCN(c2ncnc3c2[C@H](C)C[C@H]3O)CC1)c1ccc(Cl)cc1 [Ipatasertib/GDC0068] (max 10 µM) ... 0.704
CC(=O)O[C@H]1C(=O)[C@@]2(C)[C@H]([C@H](OC(=O)c3ccccc3)[C@]3(O)C[C@H](OC(=O)[C@H](O)[C@@H](NC(=O)c4ccccc4)c4ccccc4)C(C)=C1C3(C)C)[C@]1(OC(C)=O)CO[C@@H]1C[C@@H]2O [Paclitaxel] (max 1 µM) ... -0.403
CCNC(=O)c1noc(-c2cc(C(C)C)c(O)cc2O)c1-c1ccc(CN2CCOCC2)cc1 [Luminespib/NVP-AUY922] (max 1 µM) ... -0.253
CNc1nc(-c2ccc3c(N)n[nH]c3c2)cc(N2C[C@@H](C(=O)NC3CCCCC3)CC[C@H]2C)n1 (max 10 µM) ... 0.545
CN(C)C/C=C/C(=O)Nc1ccc(C(=O)Nc2cccc(Nc3ncc(Cl)c(-c4c[nH]c5ccccc45)n3)c2)cc1 [THZ1] (max 1 µM) ... -0.171
O=C(CCCCCCC(=O)Nc1ccccc1)NO [Vorinostat] (max 10 µM) ... -0.285

Entry CNC(=O)c1cccc(-c2ccc3c(N4CCOC[C@@H]4C)nc(N4CCOC[C@@H]4C)nc3n2)c1 [AZD2014] (max 10 µM) has what GRmax, 72 h?
0.0715

Entry CC(C)Nc1cc(-c2c[nH]c(C(=O)N[C@H](CO)c3cccc(Cl)c3)c2)c(Cl)cn1 [BVD523] (max 10 µM) has what GRmax, 72 h?
0.752

Entry COc1ccc2c(c1)[C@]1(C[C@H]1c1ccc3c(/C=C/c4ccc(CN5C[C@@H](C)O[C@@H](C)C5)cc4)n[nH]c3c1)C(=O)N2 has what GRmax, 72 h?
-0.0338
